Measured shrunken log2 fold change, listed per entry for reference.
# Test system: Escherichia coli TOP10
# Assay: shrunken log2 fold change of peptide-encoding DNA abundance (4.5 h post-induction vs induction); higher = less antimicrobial activity (less host growth inhibition)
# Assay Conditions: time post-induction: 4.5 h; library: site-saturation at positions 5, 18, 19, 20
Property: shrunken log2 fold change

>>> reading("RRIRIRPPRLPRPRPRPYQFPRP")
-0.141
>>> reading("RRIRFRPPRLPRPRPRPAQHPRP")
0.265
>>> reading("RRIRERPPRLPRPRPRPPPYPRP")
-0.231
>>> reading("RRIRHRPPRLPRPRPRPLLGPRP")
-0.107
>>> reading("RRIRNRPPRLPRPRPRPWTQPRP")
-0.0178
>>> reading("RRIRMRPPRLPRPRPRPVVEPRP")
0.719
>>> reading("RRIRKRPPRLPRPRPRPRMGPRP")
0.149
>>> reading("RRIRIRPPRLPRPRPRPHEQPRP")
-0.288
>>> reading("RRIRVRPPRLPRPRPRPMEDPRP")
0.0593
>>> reading("RRIRLRPPRLPRPRPRPWRFPRP")
0.271
>>> reading("RRIRTRPPRLPRPRPRPNKWPRP")
0.0213
>>> reading("RRIRKRPPRLPRPRPRPEKGPRP")
-0.00382
>>> reading("RRIRRRPPRLPRPRPRPRCSPRP")
0.152
>>> reading("RRIRARPPRLPRPRPRPPRAPRP")
0.932
>>> reading("RRIRIRPPRLPRPRPRPQCPPRP")
-0.472
>>> reading("RRIRNRPPRLPRPRPRPHSMPRP")
-0.027
>>> reading("RRIRVRPPRLPRPRPRPDWVPRP")
-0.0925
>>> reading("RRIRERPPRLPRPRPRPEFAPRP")
0.0144
>>> reading("RRIRMRPPRLPRPRPRPWANPRP")
-0.0525
>>> reading("RRIRCRPPRLPRPRPRPEWFPRP")
0.000144
>>> reading("RRIRNRPPRLPRPRPRPMNRPRP")
-0.00285
>>> reading("RRIRERPPRLPRPRPRPKFRPRP")
-0.315
>>> reading("RRIRYRPPRLPRPRPRPVTYPRP")
-0.41
>>> reading("RRIRQRPPRLPRPRPRPNRFPRP")
-0.00894
>>> reading("RRIRCRPPRLPRPRPRPSYNPRP")
-0.816
>>> reading("RRIRQRPPRLPRPRPRPQGYPRP")
-0.19
>>> reading("RRIRFRPPRLPRPRPRPRRKPRP")
0.246
>>> reading("RRIRWRPPRLPRPRPRPGRLPRP")
-0.0636
>>> reading("RRIRERPPRLPRPRPRPMWSPRP")
-0.351
>>> reading("RRIRNRPPRLPRPRPRPCVPPRP")
-0.00911
>>> reading("RRIRPRPPRLPRPRPRPNDRPRP")
-0.0965
>>> reading("RRIRVRPPRLPRPRPRPVDGPRP")
0.021

====

# System: Escherichia coli TOP10;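 note: peptides expressed intracellularly from a pBAD plasmid library in pooled LB shake-flask culture, induced with 0.3% L-arabinose, DNA abundance read by NGS, three biological replicates, DESeq2 with apeglm shrinkage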
# Assay: shrunken log2 fold change of peptide-encoding DNA abundance (4.5 h post-induction vs induction); higher = less antimicrobial activity (less host growth inhibition)
# Assay Conditions: time post-induction: 4.5 h; library: site-saturation at positions 5, 18, 19, 20
Quick rule for you: shrunken log2 fold change at -0.08 or higher means True, lower means False.

>>> assigned_class("RRIRPRPPRLPRPRPRPWSNPRP")
"False"
>>> assigned_class("RRIRQRPPRLPRPRPRPSKTPRP")
"False"
>>> assigned_class("RRIRNRPPRLPRPRPRPQMHPRP")
"False"
>>> assigned_class("RRIRARPPRLPRPRPRPSSVPRP")
"True"
>>> assigned_class("RRIRRRPPRLPRPRPRPVIMPRP")
"True"
>>> assigned_class("RRIRMRPPRLPRPRPRPQMGPRP")
"True"
>>> assigned_class("RRIRGRPPRLPRPRPRPGNQPRP")
"False"
>>> assigned_class("RRIRNRPPRLPRPRPRPTTIPRP")
"False"
